# APPLIED_CONDITIONS: in ethyl acetate, 328.15 K
QUANTITY: solubility (mole fraction)

Query "O=P(NCc1ccccc1)(Oc1ccccc1)Oc1ccccc1" yields solubility (mole fraction) of 0.137

---

# APPLIED_CONDITIONS: in ethyl acetate, 308.15 K
QUANTITY: solubility (mole fraction)
// return a plain number; no unit text

Noted for "O=P(NCc1ccccc1)(Oc1ccccc1)Oc1ccccc1" : its solubility (mole fraction) reads 0.0484

---

# APPLIED_CONDITIONS: in toluene, 318.15 K
QUANTITY: solubility (mole fraction)
Reply with the value as a number alone.

solubility (mole fraction) reading for "O=P(NCc1ccccc1)(Oc1ccccc1)Oc1ccccc1" : 0.0574

---

# APPLIED_CONDITIONS: in methanol, 308.15 K
QUANTITY: solubility (mole fraction)
// response body must contain only the number

Sample "O=P(NCc1ccccc1)(Oc1ccccc1)Oc1ccccc1" ; solubility (mole fraction) observed: 0.0322

---

# APPLIED_CONDITIONS: in THF, 323.15 K
QUANTITY: solubility (mole fraction)
Returns: the value as a bare number; no unit string appended.

Looking up "O=P(NCc1ccccc1)(Oc1ccccc1)Oc1ccccc1" , I see its solubility (mole fraction) listed as 0.24

---

# APPLIED_CONDITIONS: in toluene, 343.15 K
QUANTITY: solubility (mole fraction)

Documented solubility (mole fraction) of "O=P(NCc1ccccc1)(Oc1ccccc1)Oc1ccccc1" : 0.243

---

# APPLIED_CONDITIONS: in ethyl acetate, 303.15 K
QUANTITY: solubility (mole fraction)

Memo: "O=P(NCc1ccccc1)(Oc1ccccc1)Oc1ccccc1" , reported solubility (mole fraction): 0.0368

---

# APPLIED_CONDITIONS: in methanol, 318.15 K
QUANTITY: solubility (mole fraction)

Please fill in: solubility (mole fraction) reported for "O=P(NCc1ccccc1)(Oc1ccccc1)Oc1ccccc1" = 0.0629

---

# APPLIED_CONDITIONS: in chloroform, 298.15 K
QUANTITY: solubility (mole fraction)

Lab note: "O=P(NCc1ccccc1)(Oc1ccccc1)Oc1ccccc1" gave solubility (mole fraction) of 0.126

---

# APPLIED_CONDITIONS: in chloroform, 313.15 K
QUANTITY: solubility (mole fraction)
Response field accepts a number only; no unit should be typed.

The measured solubility (mole fraction) associated with "O=P(NCc1ccccc1)(Oc1ccccc1)Oc1ccccc1" reads 0.191

---

# APPLIED_CONDITIONS: in dichloromethane, 293.15 K
QUANTITY: solubility (mole fraction)

Field solubility (mole fraction) (entry "O=P(NCc1ccccc1)(Oc1ccccc1)Oc1ccccc1" ) reads 0.0724

---

# APPLIED_CONDITIONS: in THF, 293.15 K
QUANTITY: solubility (mole fraction)
Format: numeric value only, no unit, no commentary.

The reported value for "O=P(NCc1ccccc1)(Oc1ccccc1)Oc1ccccc1" in terms of solubility (mole fraction) is 0.0978

---

# APPLIED_CONDITIONS: in toluene, 313.15 K
QUANTITY: solubility (mole fraction)
Please reply with the value in numeric form only.

Note to self: solubility (mole fraction) recorded for "O=P(NCc1ccccc1)(Oc1ccccc1)Oc1ccccc1" was 0.0428

---

# APPLIED_CONDITIONS: in acetone, 308.15 K
QUANTITY: solubility (mole fraction)
Lab note: record just the number, no unit beside it.

// solubility (mole fraction) lookup, compound = "O=P(NCc1ccccc1)(Oc1ccccc1)Oc1ccccc1" , result: 0.0986

---

# APPLIED_CONDITIONS: in acetonitrile, 323.15 K
QUANTITY: solubility (mole fraction)
# output: bare number, no unit

What the record says about "O=P(NCc1ccccc1)(Oc1ccccc1)Oc1ccccc1" : solubility (mole fraction) is 0.0742

---

# APPLIED_CONDITIONS: in methanol, 328.15 K
QUANTITY: solubility (mole fraction)
Enter the number alone.

Consider "O=P(NCc1ccccc1)(Oc1ccccc1)Oc1ccccc1" . Its measured solubility (mole fraction) is 0.125

---

# APPLIED_CONDITIONS: in methyl acetate, 323.15 K
QUANTITY: solubility (mole fraction)
Output: the number by itself.

Entry "O=P(NCc1ccccc1)(Oc1ccccc1)Oc1ccccc1" ; solubility (mole fraction) = 0.122

---

# APPLIED_CONDITIONS: in acetone, 318.15 K
QUANTITY: solubility (mole fraction)

Measured solubility (mole fraction) of "O=P(NCc1ccccc1)(Oc1ccccc1)Oc1ccccc1" : 0.154

---

# APPLIED_CONDITIONS: in THF, 308.15 K
QUANTITY: solubility (mole fraction)
Give only the figure.

Reported solubility (mole fraction) for "O=P(NCc1ccccc1)(Oc1ccccc1)Oc1ccccc1" was 0.157

---

# APPLIED_CONDITIONS: in acetonitrile, 308.15 K
QUANTITY: solubility (mole fraction)
# respond with the number and nothing more

Form field solubility (mole fraction), entry "O=P(NCc1ccccc1)(Oc1ccccc1)Oc1ccccc1" : 0.0344

---

# APPLIED_CONDITIONS: in acetonitrile, 333.15 K
QUANTITY: solubility (mole fraction)
Lab note: jot the number down without any unit.

Entry "O=P(NCc1ccccc1)(Oc1ccccc1)Oc1ccccc1" — recorded solubility (mole fraction) = 0.122

---

# APPLIED_CONDITIONS: in ethyl acetate, 323.15 K
QUANTITY: solubility (mole fraction)
No unit in the answer, please; the number alone is enough.

Lab note: "O=P(NCc1ccccc1)(Oc1ccccc1)Oc1ccccc1" gave solubility (mole fraction) of 0.104

---

# APPLIED_CONDITIONS: in ethyl acetate, 318.15 K
QUANTITY: solubility (mole fraction)
Write the number on its own, no unit after it.

// recorded solubility (mole fraction) for "O=P(NCc1ccccc1)(Oc1ccccc1)Oc1ccccc1" : 0.0824

---

# APPLIED_CONDITIONS: in methyl acetate, 318.15 K
QUANTITY: solubility (mole fraction)
Write the value as a bare number.

Lab note: "O=P(NCc1ccccc1)(Oc1ccccc1)Oc1ccccc1" gave solubility (mole fraction) of 0.094

---

# APPLIED_CONDITIONS: in toluene, 333.15 K
QUANTITY: solubility (mole fraction)

The measured solubility (mole fraction) associated with "O=P(NCc1ccccc1)(Oc1ccccc1)Oc1ccccc1" reads 0.146

---

# APPLIED_CONDITIONS: in methanol, 303.15 K
QUANTITY: solubility (mole fraction)
Number only, no unit.

The measured solubility (mole fraction) associated with "O=P(NCc1ccccc1)(Oc1ccccc1)Oc1ccccc1" reads 0.0231

---

# APPLIED_CONDITIONS: in acetone, 313.15 K
QUANTITY: solubility (mole fraction)
Answer with a number only.

// "O=P(NCc1ccccc1)(Oc1ccccc1)Oc1ccccc1" : solubility (mole fraction) value = 0.122

---

# APPLIED_CONDITIONS: in acetonitrile, 298.15 K
QUANTITY: solubility (mole fraction)
Give the value as a plain number.

Recorded result, "O=P(NCc1ccccc1)(Oc1ccccc1)Oc1ccccc1" , solubility (mole fraction): 0.0196

---

# APPLIED_CONDITIONS: in methyl acetate, 293.15 K
QUANTITY: solubility (mole fraction)
Give the value as a plain number.

Lab book: solubility (mole fraction) of "O=P(NCc1ccccc1)(Oc1ccccc1)Oc1ccccc1" noted as 0.0234

---

# APPLIED_CONDITIONS: in acetonitrile, 293.15 K
QUANTITY: solubility (mole fraction)
Enter a number only.

Recorded solubility (mole fraction) (compound "O=P(NCc1ccccc1)(Oc1ccccc1)Oc1ccccc1" ): 0.0148

---

# APPLIED_CONDITIONS: in chloroform, 328.15 K
QUANTITY: solubility (mole fraction)

Please fill in: solubility (mole fraction) reported for "O=P(NCc1ccccc1)(Oc1ccccc1)Oc1ccccc1" = 0.275

---

# APPLIED_CONDITIONS: in THF, 298.15 K
QUANTITY: solubility (mole fraction)

What the record says about "O=P(NCc1ccccc1)(Oc1ccccc1)Oc1ccccc1" : solubility (mole fraction) is 0.115

---

# APPLIED_CONDITIONS: in methanol, 298.15 K
QUANTITY: solubility (mole fraction)
Answer with a number only.

Quick note, solubility (mole fraction) for "O=P(NCc1ccccc1)(Oc1ccccc1)Oc1ccccc1" landed at 0.0158

---

# APPLIED_CONDITIONS: in THF, 318.15 K
QUANTITY: solubility (mole fraction)
// response body must contain only the number

The measured solubility (mole fraction) associated with "O=P(NCc1ccccc1)(Oc1ccccc1)Oc1ccccc1" reads 0.208

---

# APPLIED_CONDITIONS: in toluene, 338.15 K
QUANTITY: solubility (mole fraction)
Just the number, please.

According to the records, this molecule "O=P(NCc1ccccc1)(Oc1ccccc1)Oc1ccccc1" displays solubility (mole fraction) of 0.187

---

# APPLIED_CONDITIONS: in methanol, 293.15 K
QUANTITY: solubility (mole fraction)
Format: numeric value only, no unit, no commentary.

solubility (mole fraction) recorded for this molecule, "O=P(NCc1ccccc1)(Oc1ccccc1)Oc1ccccc1" , is 0.0111
